Source: patent US10653780B2

Assay: In situ determination of apparent pKa using TNS fluorescence titration
Conditions: nucleic acid-lipid particles containing the cationic lipid
measuredQuantity: pKa
Numbers only.

# compound, measuredQuantity, observedResult
measured = [
    ("CCCCC/C=C\\C/C=C\\CCCCCCCCOCC(CN(C)C)OCCCCCCCC/C=C\\C/C=C\\CCCCC (centres unmarked) [DLinDMA, 1,2-Dilinoleyloxy-3-dimethylaminopropane, reference compound]", "pKa", 6.4),
]

Consider the additional compound presented here.
In: Would you kindly share the measured pKa for CCCCC/C=C\C/C=C\CCCCCCCCC1(CCCCCCCC/C=C\C/C=C\CCCCC)OCC(CCN(C)C)O1 (centres unmarked) [DLin-K-C2-DMA] ?
Out: 6.4
